- method description: Phase-Ib study in CF patients, plasma pharmacokinetics (LC-MS/MS)
- Type: in vivo
- condition summary: human, inhaled or intranasal, dose group 1 (80 mg), read-out: mean plasma concentration 24 hours after inhalation
Non-standard residues stand in square brackets, D forms with d. Residues, ends and D or L forms follow the SMILES beside them. Gly(octyl) = CCCCCCCC[C@H](N)C(=O)O
reported property: level at 24 h
Answer with the figure and its unit, nothing else.

Fill blank: measured level at 24 h of the molecule CCCCCCCC[C@@H]1NC(=O)[C@@H]2CCCN2C(=O)[C@H]2CCCN2C(=O)[C@H](Cc2ccc(O)cc2)NC(=O)[C@H](CCCCN)NC(=O)[C@H](CCC(N)=O)NC(=O)[C@@H]2CCCN2C(=O)[C@@H]2CCCN2C(=O)[C@H]([C@@H](C)CC)NC(=O)[C@H](CO)NC(=O)[C@H](C)NC(=O)[C@H]([C@@H](C)O)NC(=O)[C@H](CCC(=O)O)NC1=O [active compound] (cyclo([Gly(octyl)]ETASIPPQKY[dP]P)) is ____.
2.8 ng/mL
